Attribution: paper doi:10.1101/2021.10.07.463234v2

For each of the compounds below, state its inhibition at 100 µM.
target: UniProt:P0DTD1; test: biochemical; conditions: read-out: %inhibition
Counter-ions that a name gives are not always drawn.
Number in %, nothing else.

Enquiry: // query inhibition at 100 µM value for entry CCOC(=O)C1=C(C)NC(C)=C(C(=O)OCC)C1c1ccccc1/C=C/C(=O)OC(C)(C)C
Return: 3.07

Enquiry: // query inhibition at 100 µM value for entry CN1CCN(c2nc(C3=C(c4c[nH]c5ccccc45)C(=O)NC3=O)c3ccccc3n2)CC1
Return: 34.7

Enquiry: // query inhibition at 100 µM value for entry C[C@](N)(Cc1ccc(O)c(O)c1)C(=O)O
Return: 8.62

Enquiry: // query inhibition at 100 µM value for entry C[C@@](Cc1ccc(O)c(O)c1)(NN)C(=O)O
Return: 24.2

Enquiry: // query inhibition at 100 µM value for entry CC[N+](CC)(CC)CCOc1cccc(OCC[N+](CC)(CC)CC)c1OCC[N+](CC)(CC)CC [Gallamine Triethiodide]
Return: 3.8

Enquiry: // query inhibition at 100 µM value for entry CN(C)c1cc(NC(=O)CNC(C)(C)C)c(O)c2c1C[C@H]1C[C@H]3[C@H](N(C)C)C(O)=C(C(N)=O)C(=O)[C@@]3(O)C(O)=C1C2=O
Return: 0

Enquiry: // query inhibition at 100 µM value for entry CCc1c2c(nc3ccc(OC(=O)N4CCC(N5CCCCC5)CC4)cc13)-c1cc3c(c(=O)n1C2)COC(=O)[C@]3(O)CC [Irinotecan HCl Trihydrate]
Return: 0

Enquiry: // query inhibition at 100 µM value for entry C[C@@H](NCCCc1cccc(C(F)(F)F)c1)c1cccc2ccccc12 [Cinacalcet HCl]
Return: 4.38

Enquiry: // query inhibition at 100 µM value for entry C[N+](C)(C)C[C@H](O)CC(=O)[O-]
Return: 3.55

Enquiry: // query inhibition at 100 µM value for entry COc1ccccc1OCC(O)CO (stereo not drawn)
Return: 33.3

Enquiry: // query inhibition at 100 µM value for entry CC1(C)OC(=O)NC1=O
Return: 0.163

Enquiry: // query inhibition at 100 µM value for entry COc1ccc2c3c1O[C@H]1C[C@@H](O)C=C[C@@]31CCN(C)C2
Return: 0

Enquiry: // query inhibition at 100 µM value for entry c1cnc2cc3c(cc2n1)[C@@H]1CNC[C@H]3C1 [Varenicline Tartrate]
Return: 0

Enquiry: // query inhibition at 100 µM value for entry C=C1/C(=C\C=C2/CCC[C@]3(C)[C@@H]([C@H](C)CCCC(C)C)CC[C@@H]23)C[C@@H](O)C[C@@H]1O
Return: 0

Enquiry: // query inhibition at 100 µM value for entry O=C(O)CCNC(=O)c1ccccc1
Return: 7.69

Enquiry: // query inhibition at 100 µM value for entry COc1cc(OC)c(/C=C/S(=O)(=O)Cc2ccc(OC)c(NCC(=O)O)c2)c(OC)c1
Return: 0.0877

Enquiry: // query inhibition at 100 µM value for entry C[C@@H](O)[C@H]1C(=O)N2C(C(=O)O)=C(S[C@@H]3CN[C@H](C(=O)Nc4cccc(C(=O)O)c4)C3)[C@H](C)[C@H]12 [Ertapenem sodium]
Return: 2.44

Enquiry: // query inhibition at 100 µM value for entry C[C@]12C=CC(=O)N[C@@H]1CC[C@@H]1[C@@H]2CC[C@]2(C)[C@@H](C(=O)Nc3cc(C(F)(F)F)ccc3C(F)(F)F)CC[C@@H]12 [Dutasteride]
Return: 12

Enquiry: // query inhibition at 100 µM value for entry CCOC(N)=O
Return: 0

Enquiry: // query inhibition at 100 µM value for entry CC(C)N(CCCCOCC(=O)NS(C)(=O)=O)c1cnc(-c2ccccc2)c(-c2ccccc2)n1
Return: 0

Enquiry: // query inhibition at 100 µM value for entry COc1cc2c(Oc3ccc4[nH]c(C)cc4c3F)ncnc2cc1OCCCN1CCCC1
Return: 51.1

Enquiry: // query inhibition at 100 µM value for entry OC[C@H]1OC(O)[C@H](O)[C@@H](O)[C@@H]1O (stereo partly drawn)
Return: 0

Enquiry: // query inhibition at 100 µM value for entry NCCc1c[nH]c2ccc(O)cc12 [Serotonin HCl]
Return: 8.8

Enquiry: // query inhibition at 100 µM value for entry NC(=O)[C@@H](CCC(F)(F)F)N(Cc1ccc(-c2ncon2)cc1F)S(=O)(=O)c1ccc(Cl)cc1
Return: 0

Enquiry: // query inhibition at 100 µM value for entry CN[C@@H]1[C@H](O[C@H]2[C@H](O[C@H]3[C@H](O)[C@@H](O)[C@H](N=C(N)N)[C@@H](O)[C@@H]3N=C(N)N)O[C@@H](C)[C@]2(O)C=O)O[C@@H](CO)[C@H](O)[C@H]1O [Streptomycin sulfate]
Return: 0

Enquiry: // query inhibition at 100 µM value for entry O=C(Nc1cc(Cl)cc(Cl)c1O)c1c(O)c(Cl)cc(Cl)c1Cl [Oxyclozanide]
Return: 8.75

Enquiry: // query inhibition at 100 µM value for entry C[C@H](Oc1cc(-c2cnn(C3CCNCC3)c2)cnc1N)c1c(Cl)ccc(F)c1Cl [(S)-crizotinib]
Return: 4.9

Enquiry: // query inhibition at 100 µM value for entry COc1cc([C@@H]2c3cc4c(cc3[C@@H](O[C@@H]3O[C@@H]5CO[C@@H](c6cccs6)O[C@H]5[C@H](O)[C@H]3O)[C@H]3COC(=O)[C@H]23)OCO4)cc(OC)c1O [Teniposide]
Return: 12.8

Enquiry: // query inhibition at 100 µM value for entry CC[C@H](C)C(=O)O[C@H]1C[C@H](O)C=C2C=C[C@H](C)[C@H](CC[C@@H](O)C[C@@H](O)CC(=O)O)[C@H]21 [Pravastatin sodium]
Return: 28.2

Enquiry: // query inhibition at 100 µM value for entry C[C@]12C=CC(=O)C=C1CC[C@H]1[C@@H]3C[C@@H](O)[C@](O)(C(=O)CO)[C@@]3(C)C[C@H](O)[C@@]12F
Return: 16.5
